Values were extracted from ChEMBL document CHEMBL1177669.

- assayed_system: 5-hydroxytryptamine receptor 6 (Homo sapiens, UniProt P50406)
- Sequence (P50406 whole entry): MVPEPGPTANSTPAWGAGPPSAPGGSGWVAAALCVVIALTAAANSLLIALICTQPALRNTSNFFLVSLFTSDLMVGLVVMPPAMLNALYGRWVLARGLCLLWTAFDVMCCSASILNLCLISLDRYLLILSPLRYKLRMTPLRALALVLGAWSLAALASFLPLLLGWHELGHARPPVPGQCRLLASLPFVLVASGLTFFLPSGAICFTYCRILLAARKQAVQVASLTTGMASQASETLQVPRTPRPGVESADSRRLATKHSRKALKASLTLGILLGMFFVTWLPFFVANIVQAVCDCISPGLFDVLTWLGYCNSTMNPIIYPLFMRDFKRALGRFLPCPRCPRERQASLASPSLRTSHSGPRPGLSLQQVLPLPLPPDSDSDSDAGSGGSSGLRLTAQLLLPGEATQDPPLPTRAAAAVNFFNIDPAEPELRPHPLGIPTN
- procedure_summary: Antagonist activity at human recombinant 5HT6 receptor expressed in HEK293 cells assessed as inhibition of serotonin-induced cAMP production
- Format: functional, cell-based
observation_type: IC50

[[record]]
smiles_text = "O=S(=O)(c1ccccc1)c1nnn2c1nc(Nc1nc3ccccc3s1)c1sccc12"
assayed_system = "5-hydroxytryptamine receptor 6 (Homo sapiens, UniProt P50406)"
measured = "> 5000 nM"

[[record]]
smiles_text = "CC(C)CCNc1nc2c(S(=O)(=O)c3ccc(C(C)C)cc3)nnn2c2ccsc12"
assayed_system = "5-hydroxytryptamine receptor 6 (Homo sapiens, UniProt P50406)"
measured = "> 5000 nM"

[[record]]
smiles_text = "CCc1ccc(S(=O)(=O)c2nnn3c2nc(NCCC(C)C)c2sccc23)cc1"
assayed_system = "5-hydroxytryptamine receptor 6 (Homo sapiens, UniProt P50406)"
measured = "> 5000 nM"

[[record]]
smiles_text = "COCCNc1nc2c(S(=O)(=O)c3ccc(C)cc3)nnn2c2ccsc12"
assayed_system = "5-hydroxytryptamine receptor 6 (Homo sapiens, UniProt P50406)"
measured = "1490 nM"

[[record]]
smiles_text = "O=S(=O)(c1ccc(Cl)cc1)c1nnn2c1nc(NCc1ccco1)c1sccc12"
assayed_system = "5-hydroxytryptamine receptor 6 (Homo sapiens, UniProt P50406)"
measured = "410 nM"

[[record]]
smiles_text = "O=S(=O)(c1ccccc1)c1nnn2c1nc(Nc1cccc(C(F)(F)F)c1)c1sccc12"
assayed_system = "5-hydroxytryptamine receptor 6 (Homo sapiens, UniProt P50406)"
measured = "820 nM"

[[record]]
smiles_text = "COCCCNc1nc2c(S(=O)(=O)c3ccc(Br)cc3)nnn2c2ccsc12"
assayed_system = "5-hydroxytryptamine receptor 6 (Homo sapiens, UniProt P50406)"
measured = "> 5000 nM"

[[record]]
smiles_text = "O=S(=O)(c1ccc(Cl)cc1)c1nnn2c1nc(NCc1cccs1)c1sccc12"
assayed_system = "5-hydroxytryptamine receptor 6 (Homo sapiens, UniProt P50406)"
measured = "650 nM"

[[record]]
smiles_text = "CCN(Cc1ccccc1)c1nc2c(S(=O)(=O)c3cccc(Cl)c3)nnn2c2ccsc12"
assayed_system = "5-hydroxytryptamine receptor 6 (Homo sapiens, UniProt P50406)"
measured = "540 nM"


====

- assayed_system: 5-hydroxytryptamine receptor 6 (Homo sapiens, UniProt P50406)
- procedure_summary: Binding affinity to human recombinant 5HT6 receptor expressed in HEK293 cells by radioligand displacement assay
- Format: cell-based
pIC50: −log10 of the molar value.
observation_type: pIC50

[[record]]
smiles_text = "CN(C)c1nc2c(S(=O)(=O)c3ccccc3)nnn2c2ccsc12"
measured = "< 7.52"

[[record]]
smiles_text = "CN(C)CCNc1nc2c(S(=O)(=O)c3ccccc3)nnn2c2ccsc12"
measured = "< 6.52"

[[record]]
smiles_text = "CN(C)CCN(C)c1nc2c(S(=O)(=O)c3ccccc3)nnn2c2ccsc12"
measured = "< 6.52"

[[record]]
smiles_text = "O=S(=O)(c1ccccc1)c1nnn2c1nc(NCc1cccnc1)c1sccc12"
measured = "< 7.52"

[[record]]
smiles_text = "CN(Cc1cccnc1)c1nc2c(S(=O)(=O)c3ccccc3)nnn2c2ccsc12"
measured = "< 7.52"

